Tested on: Sonic hedgehog protein (Shh)
Method description: Sonic hedgehog microarray binding compounds – biochemical, small-molecule microarray, 635/667 nm fluorescence, primary screen (AID 1151);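 note: Shh protein binding to compounds spotted on small-molecule microarray slides; score combines spot fluorescence intensity with signal-to-noise across triplicate slides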
Conditions: 635 nm fluorescence, higher = more signal
Here the recorded composite z-score is given for each entry.
// return just the number, without any unit appended

Before answering, review these 5 worked examples.
>>> meas_value("O=C1C[C@]2(c3ccc([N+](=O)[O-])cc3)C(=O)N(C3CC3)c3cc(CO)ccc3[C@H]2N1C1CCCCC1")
0.147
>>> meas_value("O=C1NC(=O)C2C1C=CC(C(O)c1ccc(B(O)O)cc1)N2Nc1ccc(Cl)cc1Cl (stereo not drawn)")
-0.589
>>> meas_value("C=CCNC(=O)[C@H]1[C@@H]2C(=O)O[C@@H](c3ccccc3)[C@@H](c3ccccc3)N2[C@@H](c2ccc(OCCO)cc2)[C@]12C(=O)Nc1ccccc12")
-0.0035
>>> meas_value("CC1CC/C=C\\[C@H]2OC34C=CCN(Cn5nnc6ccccc65)C(=O)[C@H]3N(CCCCCCO)C(=O)[C@@H]4C2C(=O)O1 (stereo partly drawn)")
-0.415
>>> meas_value("C=C1C(=O)C=C2CN(C(=O)c3ccccc3)[C@@](Cc3ccc(OC)cc3)(C(=O)OC)[C@@H]12")
0.193

[ask] Recorded composite z-score for O=C(NC1CC1)[C@@H]1c2ccccc2C(=O)N(Cc2ccc(OC(F)(F)F)cc2)[C@H]1c1ccc(CO)cc1 with Sonic hedgehog protein (Shh), please?
[reply] 0.391

[ask] Then COCCOC(=O)N1C(=O)[C@@]2(c3cc(C#CCC(C(=O)OC)C(=O)OC)ccc31)[C@H](c1ccc(O)cc1)N1[C@H](c3ccccc3)[C@H](c3ccccc3)OC(=O)[C@H]1[C@@H]2C(=O)Nc1nc2ccccc2s1 ?
[reply] 1.77

[ask] Then CCCNC(=O)[C@@]1(Sc2ccc(C)cc2)CC(=O)N(Cc2ccccc2Cl)[C@@H]1c1ccc(CO)cc1I ?
[reply] -0.537

[ask] Then CO[C@H]1O[C@H](CO)[C@@H](OC(=O)Nc2ccccc2)[C@H](OC(=O)Nc2ccccc2)[C@H]1OC(=O)Nc1ccccc1 ?
[reply] 0.78

[ask] Then N#Cc1ccc(-c2cccc(=O)o2)cc1 ?
[reply] 0.458

[ask] Then C=CCNC(=O)[C@@H]1[C@H]2C(=O)O[C@H](c3ccccc3)[C@H](c3ccccc3)N2[C@H](c2ccc(OCCO)cc2)[C@@]12C(=O)Nc1ccc(C#CC3(O)CCCCCC3)cc12 ?
[reply] 0.938

[ask] Then C=C(CCCC)/C(=C/C[C@H](OC(=O)c1ccncc1)c1cccc(OCCO)c1)c1cnc2ccccc2c1 ?
[reply] 1.78

[ask] Then CCCCC(O)C1C=CC2C(=O)N(c3ccccc3)C(=O)C2N1Nc1ccc([N+](=O)[O-])cc1 (stereo not drawn) ?
[reply] -0.61

[ask] Then CC(C)=CCCC(C)=CC(O)C1C=CC2C(=O)NC(=O)C2N1Nc1ccc(Cl)cc1Cl (stereo not drawn) ?
[reply] 0.737

[ask] Then CCOc1cc(C(O)C2C=CC3C(=O)N(c4ccccc4)C(=O)C3N2Nc2ccccc2F)ccc1O (stereo not drawn) ?
[reply] -0.663

[ask] Then C[C@@H]1ON(c2ccc(I)cc2)[C@H](c2cccc(NC(=O)OCC3c4ccccc4-c4ccccc43)c2)[C@H]1C(=O)N1C(=O)OC[C@H]1Cc1ccccc1 ?
[reply] 0.851

[ask] Then COc1ccc(C(O)C2C=CC3C(=O)N(C)C(=O)C3N2N(c2ccccc2)c2ccccc2)cc1 (stereo not drawn) ?
[reply] -0.176

[ask] Then COC(=O)[C@@]1(Cc2ccc(OC)cc2)[C@H]2c3cc(C(=O)N4CCCC4)n(Cc4ccc(C(F)(F)F)nc4)c3C[C@H]2CN1C(=O)c1ccccc1 ?
[reply] -0.246

[ask] Then C=C(CCCC)C(=O)CC[C@@H](OC(=O)c1ccccc1-c1ccccc1C(=O)O)c1ccccc1OCCO ?
[reply] 1.56

[ask] Then O=C1c2ccccc2[C@@]2(Cc3ccccc3N(Cc3ccccc3)C2=O)[C@H](c2ccc(CO)cc2)N1Cc1ccccc1Cl ?
[reply] -0.971

[ask] Then COc1ccc([Si](C)(C)[C@@H]2[C@@H](CC(=O)N3Cc4ccccc4C[C@H]3CO)O[C@]3(C(=O)N(Cc4cccc(N5CCOC5=O)c4)c4ccccc43)[C@H]2C)cc1 ?
[reply] 2.11

[ask] Then COC(=O)C(CC#Cc1ccc2c(c1)[C@]1(C(=O)N2)[C@H](C(=O)N2CCc3cc(OC)c(OC)cc3C2)[C@H]2C(=O)O[C@H](c3ccccc3)[C@H](c3ccccc3)N2[C@@H]1c1ccccc1OCCO)C(=O)OC ?
[reply] 1.99

[ask] Then O=C1C2C=CC(C(O)c3c(F)cccc3Cl)N(Nc3ccc([N+](=O)[O-])cc3)C2C(=O)N1c1ccccc1 (stereo not drawn) ?
[reply] 1.01
